Tested on: ACHN renal
Test Summary: NCI-60 one-dose screen, 48 h (100 = growth as untreated, 0 = no growth, -100 = all killed)
Setup Conditions: 10 µM unless noted
Compounds without any hit were thinned out: in the full panel of roughly 83,000, 20% have a hit. The source made the active and inactive calls. Rule for the calls: active = growth percent below 10; inactive = the rest.
Recorded growth for the following compounds

Item Smiles: Nc1c(C(=O)Nc2ccccc2Cl)sc2nc3c(cc12)CCCCCC3
Assayed Target: ACHN renal
Reported: 10.1% (inactive)
//
Item Smiles: CN(C)CCOc1ccc(-c2nc3ccc(-c4nc5ccc(N6CCN(C)CC6)cc5[nH]4)cc3[nH]2)cc1
Assayed Target: ACHN renal
Reported: 111% (inactive)
//
Item Smiles: Brc1cccc(-c2cc(-c3ccc4c(c3)OCCO4)[nH]n2)c1
Assayed Target: ACHN renal
Reported: 41.4% [25 µM] (inactive)

Briefly, growth measured for `CC(C)Oc1nc2c(c(=O)n(C)c(=O)n2C)n1C` : 101% (inactive)

Briefly, growth measured for `CCN(CC)CCC(=O)c1ccc(OC)c2ccccc12` : 105% (inactive)

Briefly, growth measured for `COc1ccc(-c2c3c(nc4n[nH]c(-c5ccc(Cl)cc5)c24)-c2ccccc2C(=O)C3=O)cc1` : 10.7% (inactive)

====

System: HCC-2998 colon
Test Summary: NCI-60 one-dose screen, 48 h
Setup Conditions: 10 µM unless noted
The panel holds about 83,000 compounds, 20% with a hit somewhere; the sample as a whole holds those more often. The source made the active and inactive calls. Rule for the calls: active = growth percent below 10; inactive = the rest.
Please reply with one of these outcomes: active, inactive

Known results for compounds:
Compound: CCN(C(=O)CN1CCN(c2cc3c(cc2F)c(=O)c(C(=O)O)cn3C2CC2)CC1)c1nc(-c2ccc(OC)cc2)cs1
Assayed Target: HCC-2998 colon
Class: inactive
--
Compound: CNC(=O)c1cc(Oc2ccc3nc(NC(=O)Nc4ccc(N5CCC(N(C)C)CC5)cc4)sc3c2)ccn1
Assayed Target: HCC-2998 colon
Class: inactive

How did this test come out for `Fc1ccc(Cc2ccc(F)cc2)cc1` ?
inactive

How did this test come out for Nc1nc2c(c3ncccc13)C(c1ccc(Cl)c(Cl)c1)Cc1ncccc1-2 (centres undefined) ?
inactive

How did this test come out for `O=S(=O)(NCCCNc1cc(-c2cn(-c3ccccc3)nc2-c2cccc(O)c2)ccn1)c1ccccc1` ?
inactive

How did this test come out for `Cc1ccc(S(=O)(=O)N(CCc2ccc(Cl)cc2)S(=O)(=O)c2ccc(C)cc2)cc1` ?
inactive

How did this test come out for `CN(C)CC(=O)Nc1ccc(Cn2nnc3c2C(=O)c2nnn(Cc4ccc(NC(=O)CN(C)C)cc4)c2C3=O)cc1` ?
active

How did this test come out for `CCOc1ccc(Nc2nc(-c3c(C)nc4ncccn34)cs2)cc1` ?
inactive

How did this test come out for `COc1cc2cc(COc3nccc(-c4ccc(Cl)cc4)n3)c(=O)[nH]c2cc1OC` ?
inactive

====

Recorded growth for the following molecules
Tested on: HOP-62 NSCLC
Test Summary: NCI-60 one-dose screen, 48 h (100 = growth as untreated, 0 = no growth, -100 = all killed)
Setup Conditions: 10 µM unless noted
This is part of a sample that, as a whole, favours compounds with a hit. Of some 83,000 tested, about 20% had one in any assay.
# output: bare number, implied unit %

Molecule: CCOC(=O)c1cnc2ccc(Br)cc2c1Nc1cccc(S(=O)(=O)NC)c1
growth / %: 92.3

Molecule: CC1=C(NCCN2CCCC2)C(=O)c2c(OCc3cccc(Cl)c3)cccc2C1=O
growth / %: 78.4

Molecule: O=C1/C(=C/c2ccc(F)cc2)CN(C(=O)CCN2CCC(=NO)CC2)C/C1=C\c1ccc(F)cc1
growth / %: -37.7

Molecule: Cc1ccc2c(c1)C(=O)c1c-2c(OCCCN(C)C)nc2ccccc12
growth / %: 19.9

Molecule: Cn1c2ccccc2c2c3c(c4c5ccccc5n(CCCCCC#N)c4c21)C(=O)N(O)C3=O
growth / %: 27.2

Briefly, growth measured for `COc1ccc(-c2nc(Nc3cc(C)[nH]n3)c3ccccc3n2)cc1` : 43.2

Briefly, growth measured for `CCCCCC(=O)N(CCCC)CCCC` : 104

// data source = PubChem BioAssay (NCI)
